system: G. duodenalis BRIS/91/HEPU/1279; assay: Primary Giardia screen at 10 µM (live-cell imaging, automated counting); format: cell-based, Giardia duodenalis; details: 48 h, first singlicate assay
MEASURED ENDPOINT: % Inhibition n=1 48h

compound="O=C(c1cccc2[nH]ccc12)N1CCC(c2nc(-c3ccccc3)no2)C1 (stereo not drawn) [SN00801115]" value_measured=23.0%
compound="O=C(c1cnn(-c2ccccc2)c1C1CC1)N1CCc2ccccc21 [SN00775113]" value_measured=0.5%
compound="O=C(CN1C(=O)CC2(CCCCC2)C1=O)Nc1ccc([N+](=O)[O-])cc1 [SN00777618]" value_measured=47.2%
compound="CC(=O)N1CCCc2cc(S(=O)(=O)N3CCN(c4ccc(F)cc4)CC3)ccc21 [SN00793330]" value_measured=0.2%
compound="CCOC(=O)C1CCN(C(=O)c2ccc3c(c2)C(=O)N(c2ccccc2C)C3=O)CC1 [SN00774484]" value_measured=0.0%
compound="CCc1ccc(NC(=O)Cn2nc3n(c2=O)CCCC3)cc1 [SN00801641]" value_measured=9.1%
compound="CCOC(=O)c1sc2nc(C)nc(N3CCCCC3C)c2c1C (stereo not drawn) [SN00783508]" value_measured=0.0%
compound="COc1ccc(CCNS(=O)(=O)c2cccc(-c3nc(-c4ccc(C)cc4)no3)c2)cc1OC [SN00797669]" value_measured=6.7%
compound="CCCn1nnc(NCc2ccc(OCc3ccccc3)cc2)n1 [SN00794214]" value_measured=16.1%
compound="CCN(c1ccccc1)S(=O)(=O)c1ccc2[nH]cc(C(=O)NCCOC)c(=O)c2c1 [SN00794693]" value_measured=10.4%
compound="O=[N+]([O-])c1ccccc1Sc1nnnn1C1CCOCC1 [SN00782002]" value_measured=15.2%
compound="Cc1ccc([C@@H]2C[C@H](c3ccccc3)n3nnnc3N2)cc1 (relative stereo) [SN00783518]" value_measured=40.1%
compound="Cc1cccc(Cn2c(CNS(=O)(=O)c3ccccc3)nc3cccnc32)c1 [SN00793267]" value_measured=9.9%
compound="O=C(N[C@H]1C[C@@H]2C[C@H]1N(C(=O)Nc1ccc3c(c1)CCC3)C2)c1ccccc1 [SN00800945]" value_measured=6.6%
compound="CCN1CCCN(c2ncnc3c2c(Br)nn3C)CC1 [SN00782469]" value_measured=4.4%
compound="COc1ccc(-c2noc(-c3cc(-c4cccs4)n[nH]3)n2)cc1 [SN00791300]" value_measured=15.5%
compound="CCOC(=O)c1sc2nc(CN3CCCCC3)nc(NCCC(=O)OC)c2c1C [SN00775388]" value_measured=0.0%
compound="CCOC(=O)Cn1c(=O)n(-c2ccccc2)c(=O)c2cc3c(nc21)CC(C)(C)OC3 [SN00786524]" value_measured=18.7%
compound="O=S(=O)(c1ccc(-c2cnc(C3CC3)o2)cc1)N1CCCCC1 [SN00792043]" value_measured=8.3%
compound="O=C(c1cn2ccccc2n1)N1CCN(c2ccccc2F)CC1 [SN00799900]" value_measured=4.9%
compound="CCC1Cn2c(C(=O)NCCN(C)C3CCCCC3)cc3cccc(c32)O1 (stereo not drawn) [SN00788158]" value_measured=54.5%

###

Overview of reported % Inhibition n=1 48h across a group of molecules:
system: G. duodenalis BRIS/91/HEPU/1279; assay: Primary Giardia screen at 10 µM (live-cell imaging, automated counting); assay type: cell-based, Giardia duodenalis; settings: 48 h, first singlicate assay
MEASURED ENDPOINT: % Inhibition n=1 48h

molecule="Cc1nn(C)c(N2CCC(C(=O)NC(C)C(C)C)CC2)c1[N+](=O)[O-] (stereo not shown) [SN00775640]" value_measured=7.0%
molecule="CCc1nc(C)c2c(C)c(C(=O)N3CCN(Cc4ccc(OC)c(F)c4)CC3)sc2n1 [SN00779632]" value_measured=14.8%
molecule="CC(C)(C)OC(=O)N1CCCC(N(Cc2ccccc2)C(=O)Cc2csc(-c3cccnc3)n2)C1 (stereo not shown) [SN00774555]" value_measured=0.0%
molecule="Cc1[nH]c(C)c(S(=O)(=O)N2CCCc3ccccc32)c1C(=O)N1CCCCC1 [SN00791426]" value_measured=0.0%
